# System: OVCAR-4 ovarian
# test-details: NCI tumour cell line growth inhibition, 48 h; in the data active = GI50 below about 0.43 µM; inactive = the rest
Bench note: report the call from y for active, n for inactive

Ask: What classification did CCSC1=NC2C(N(CC)C(=O)N2CC)N1/N=C/C=C/c1ccccc1[N+](=O)[O-] (centres undefined) end up with in this test?
Reply: y

Ask: What would you report for `COc1cccc(-c2nc3cc(NC(=O)c4ccc(Cl)c(C#N)c4)ccc3o2)c1` ?
Reply: n

Ask: What would you report for `N#C[Se]Cc1cc(-c2ccccc2)n(-c2ccc(S(N)(=O)=O)cc2)n1` ?
Reply: n

Ask: What would you report for `CCOC(=O)Oc1c(OC)cc(C(=O)c2ccc(OC)c(O)c2OC)cc1OC` ?
Reply: n

Ask: What would you report for `N#CC(C#N)=C/C=C(\Cl)c1ccc(Cl)cc1` ?
Reply: n

Ask: What would you report for O=C1OCC2=C1C(c1cccc(F)c1)c1cc3c(cc1N2CCO)OCO3 (centres undefined) ?
Reply: n

Ask: What would you report for `COc1cc(/C=C/C(=O)/C=C/c2cc(OC)c3c(c2)OCO3)cc2c1OCO2` ?
Reply: n

Ask: What would you report for CCN1C(=O)N(CC)C2C1NN=c1s/c(=C\c3ccc(Cl)cc3Cl)c(=O)n12 (centres undefined) ?
Reply: y

Ask: What would you report for CCCN1C(=O)NC(=O)C(CC)(N2C(=O)c3c(F)c(F)c(F)c(F)c3C2=O)C1=O (centres undefined) ?
Reply: n

###

# System: NCI-H23 lung
# test-details: NCI tumour cell line growth inhibition, 48 h; in the data active = GI50 below about 0.43 µM; inactive = the rest
Bench note: report the call from active, inactive

Ask: What classification did `O=C(Oc1cccnc1)c1cccnc1Nc1ccnc(C(F)(F)F)c1` end up with in this test?
Reply: inactive

Ask: What would you report for c1ccc(C2ONC3=NCCN32)cc1 (stereo not given) ?
Reply: inactive

Ask: What would you report for `O=S(=O)(Nc1ccc(Br)cc1)c1ccc(-c2cnc(C3CC3)o2)cc1` ?
Reply: inactive

Ask: What would you report for `Clc1ccc(-c2cn3ccnc3c(-c3ccc(Cl)cc3)n2)cc1` ?
Reply: inactive

Ask: What would you report for `O=C1/C(=C/c2ccc([N+](=O)[O-])cc2)CN(C(=O)CCN2CCC(=NO)CC2)C/C1=C\c1ccc([N+](=O)[O-])cc1` ?
Reply: inactive

Ask: What would you report for `O=C(c1ccc2ccccc2c1)c1c(C(F)(F)F)n([O-])c2ccc(C(F)(F)F)cc2[n+]1=O` ?
Reply: inactive

Ask: What would you report for `N#CC(C#N)=C/C=C(\Cl)c1ccc(Cl)cc1` ?
Reply: inactive

Ask: What would you report for `CCc1c2c(nc3ccc(OCc4ccc(B(O)O)cc4)cc13)-c1cc3c(c(=O)n1C2)COC(=O)[C@]3(O)CC` ?
Reply: active

Ask: What would you report for `COc1ccc2c(c1)C(=O)/C(=C/c1cccc(OCC(=O)c3ccccc3)c1)CC2` ?
Reply: inactive

Ask: What would you report for O=C1OCC2=C1C(c1cccc(F)c1)c1cc3c(cc1N2CCO)OCO3 (stereo not given) ?
Reply: inactive

###

# System: OVCAR-5 ovarian
# test-details: NCI tumour cell line growth inhibition, 48 h
Assignment: determine reported TGI for the given molecules.

Ask: Quick one: TGI for `CCc1n[nH]c(=O)n1CCCCCCCCCCCCn1c(CC)n[nH]c1=O` ?
Reply: > 100 µM

Ask: What would you report for COC(=O)/C(=N\NC(C)(C)C)C(C(=O)OC)C(=O)C(=O)Nc1cc(Cl)ccc1Cl (centres undefined) ?
Reply: > 100 µM

Ask: What would you report for `COC(=O)[C@H]1C=NN[C@@H]1C(=O)N1[C@H]2CC3CC[C@@]2(CS1(=O)=O)C3(C)C` ?
Reply: > 100 µM

Ask: What would you report for CCOC(=O)C(C#N)(Cc1c[nH]c2ccccc12)NC(C)=O (centres undefined) ?
Reply: > 100 µM

Ask: What would you report for `CCCCCOc1ccc(C=Nc2ccc(CCc3ccc(N=Cc4ccc(OCCCCC)cc4)cc3)cc2)cc1` ?
Reply: > 100 µM

Ask: What would you report for `O=C(Nc1ccccc1F)c1cc2ccc(O)cc2oc1=Nc1cccc(F)c1` ?
Reply: 71 µM

Ask: What would you report for `CC(=O)O[C@H]1CC(C)(C)C(=C=C/C(C)=C/C=C/C=C/C=C(C)/C=C2C=C(/C=C/[C@@]34O[C@]3(C)C[C@@H](O)CC4(C)C)C(=O)O/2)[C@](C)(O)C1` ?
Reply: 68.7 µM

Ask: What would you report for `Cc1cc([NH-])c([NH-])cc1C.[Cl][Pt+2][Cl]` ?
Reply: > 83.5 µM

Ask: What would you report for `c1ccc(/C(=N/Nc2nc3ccccc3s2)C2CCCCC2)nc1` ?
Reply: 14.4 µM

###

Assignment: determine reported GI50 for the given molecules.
# System: SK-MEL-5 melanoma
# test-details: NCI tumour cell line growth inhibition, 48 h

Ask: Quick one: GI50 for `Cc1ccc2cnc(N)c(C#Cc3cc(C(=O)Nc4ccc(CN5CCN(C)CC5)c(C(F)(F)F)c4)cnc3C)c2c1` ?
Reply: 1080 nM

Ask: What would you report for `Cc1c2cnccc2c(C)c2c1c1cc(C#N)ccc1n2C` ?
Reply: 224 nM

Ask: What would you report for `COc1ccc(-c2noc(C(=O)O)c2-c2cc(OC)c(OC)c(OC)c2)cc1` ?
Reply: 1300 nM

Ask: What would you report for `COc1ccc2c(c1)C(=O)/C(=C/c1cccc(OCC(=O)c3ccccc3)c1)CC2` ?
Reply: 4140 nM

Ask: What would you report for `c1ccc(-c2nc(-c3ccccn3)nc(-c3ccccn3)n2)nc1` ?
Reply: 17200 nM

Ask: What would you report for `O=C(Nc1cccc(Cl)c1)Nn1cnnc1` ?
Reply: > 50000 nM

Ask: What would you report for `N#CC(C#N)=C/C=C(\Cl)c1ccc(Cl)cc1` ?
Reply: 3130 nM

Ask: What would you report for `Nc1ncn([C@@H]2S[C@H](CO)[C@@H](O)[C@@H]2F)c(=O)n1` ?
Reply: 827 nM

Ask: What would you report for `CC[O-].CC[O-].O=C([CH-]C(=O)c1ccccc1)CCCCCCCCC(=O)[CH-]C(=O)c1ccccc1.[Ti+4]` ?
Reply: > 100000 nM

Ask: What would you report for `CCOc1ccccc1CCN=C1NC(=O)/C(=C/c2ccc3ncccc3c2)S1` ?
Reply: 2050 nM

Ask: What would you report for CC1=C([Se]CC(OC(=O)CC[Se]c2ccccc2)C(=O)NC(C)(C)C)C(=O)c2ccccc2C1=O (configuration not stated) ?
Reply: 1820 nM

Ask: What would you report for `COc1ccc(C2=Nn3c(nnc3-c3cc(Cl)cc(Cl)c3Cl)SC2)cc1` ?
Reply: 273 nM

###

Assignment: determine reported TGI for the given compounds.
# Test system: LXFL 529 NSCLC
# test-details: NCI tumour cell line growth inhibition, 48 h

Ask: Quick one: TGI for `O=C(N/N=C/c1ccccc1O)N/N=C/c1ccccc1O` ?
Reply: > 100 µM

Ask: What would you report for O=C1Nc2ccccc2C1(O)C/C(=N/O)c1ccc2ccccc2c1 (stereo not drawn) ?
Reply: > 100 µM

Ask: What would you report for Cc1ccc(C)c(NC(=O)C(=O)C(C(=O)c2ccc3ccccc3c2)C2OC(=O)c3ccccc32)c1 (stereo not drawn) ?
Reply: 25.1 µM

Ask: What would you report for O=c1ncccn1[C@@H]1O[C@H](CO)[C@H](O)C1O (stereo partly drawn) ?
Reply: > 100 µM

Ask: What would you report for Cc1c(OC(C)C(=O)O)ccc2c(-c3ccccc3)cc(=O)oc12 (stereo not drawn) ?
Reply: > 100 µM

Ask: What would you report for CC1CC(C)CC(C)C(O)/C(C#N)=C/C=C/CC(C2CCCC2C(=O)O)OC(=O)CC(O)C(C)C1 (stereo not drawn) ?
Reply: 0.0397 µM

Ask: What would you report for CCOC(=O)C(C#N)(Cc1c[nH]c2ccccc12)NC(C)=O (stereo not drawn) ?
Reply: > 100 µM

Ask: What would you report for `c1ccc(-c2csc3c4ccccc4c4ccccc4[n+]23)cc1` ?
Reply: 16.6 µM

###

# System: LOX IMVI melanoma
# test-details: NCI tumour cell line growth inhibition, 48 h
Assignment: determine reported TGI for the given molecules.

Ask: Quick one: TGI for O=C(O)CN(CC(=O)O)C1CCCCC1N1CC(=O)OC(=O)C1 (stereo not drawn) ?
Reply: > 100 µM

Ask: What would you report for `O=C(Oc1cccnc1)c1cccnc1Nc1ccnc(C(F)(F)F)c1` ?
Reply: 26 µM

Ask: What would you report for Cc1nc(C(N)=O)c(N)n1CCN1CCN(C(=O)CCCCCCCCCCNC2N=CNc3nc[nH]c32)CC1 (stereo not drawn) ?
Reply: > 100 µM

Ask: What would you report for `c1ccc(NN(Cc2cnccn2)c2ccccc2)cc1` ?
Reply: > 100 µM

Ask: What would you report for `O=c1oc2ccccc2c2c1Sc1ccccc1N2` ?
Reply: > 100 µM

Ask: What would you report for `Oc1cccc(Nc2nc3ccccc3c3occc23)c1` ?
Reply: 22.4 µM

Ask: What would you report for `CC(=O)Nc1ccc(-c2cc(C(=O)O)c3cc4ccccc4cc3n2)cc1` ?
Reply: > 100 µM

Ask: What would you report for `O=c1[nH]c2nc3ccccc3c(=O)n2/c1=C/c1ccc(Cl)cc1` ?
Reply: > 100 µM

Ask: What would you report for O=S(=O)(/N=c1\scc(-c2ccccc2)n1-c1ccccc1)c1ccc(N2N=C3c4ccccc4CC3C2c2ccc(Cl)cc2)cc1 (stereo not drawn) ?
Reply: 43.5 µM

Ask: What would you report for `COc1cc(Cl)cc(=O)c(O)c1OC` ?
Reply: > 100 µM

Ask: What would you report for `COc1ccc(C2=Nn3c(nnc3-c3cc(Cl)cc(Cl)c3Cl)SC2)cc1` ?
Reply: > 100 µM

Ask: What would you report for CN(C)CC(O)c1ccc(Cl)c2ccccc12 (stereo not drawn) ?
Reply: > 66.6 µM

Ask: What would you report for CN1N=CSC12C(=O)N(c1ccccc1)C(=O)N2c1ccccc1 (stereo not drawn) ?
Reply: > 100 µM

Ask: What would you report for CCOC(=O)C(C#N)(Cc1c[nH]c2ccccc12)NC(C)=O (stereo not drawn) ?
Reply: > 100 µM

Ask: What would you report for O=C1CC(CC(=O)C2CCCCC2=O)C(=O)N1 (stereo not drawn) ?
Reply: > 100 µM

Ask: What would you report for `CC(C)(C)c1ccc(OCCOc2ccc(C(C)(C)C)cc2N)c(N)c1` ?
Reply: > 100 µM

Ask: What would you report for `CO/N=C(\COc1ccc2c(c1)[nH]c1ccccc12)c1ccc(OC)cc1` ?
Reply: > 100 µM

Ask: What would you report for `COc1ccc(-c2noc(C(=O)O)c2-c2cc(OC)c(OC)c(OC)c2)cc1` ?
Reply: > 100 µM

Ask: What would you report for c1ncn(C23C4C5C6C4C2C6C53)n1 (stereo not drawn) ?
Reply: > 100 µM

Ask: What would you report for `C1CSCCCSCCCSCCCSCCCSCCCSCCCSCCCSC1` ?
Reply: > 100 µM

Ask: What would you report for O=C1C2C3C=C4c5ccccc5N(c5ccccc5)C4(C2C(=O)N1c1ccccc1)C1C(=O)N(c2ccccc2)C(=O)C31 (stereo not drawn) ?
Reply: > 100 µM

Ask: What would you report for Cc1ccc(C)c(NC(=O)C(=O)C(C(=O)c2ccc3ccccc3c2)C2OC(=O)c3ccccc32)c1 (stereo not drawn) ?
Reply: 35.1 µM

Ask: What would you report for O=C(COc1ccccc1Cl)N1N=C(c2ccc(Cl)cc2)CC1(O)c1ccccc1 (stereo not drawn) ?
Reply: > 100 µM
